test: physchem; details: pKL2 (free ligand pKa)

{"MOLECULE": "Oc1ccc(O)c(CN(CCN(Cc2ccccn2)Cc2cc(O)ccc2O)Cc2ccccn2)c1 [Complex H4qtp2]", "pKa": 7.18}

---

assay: physchem; settings: pKL1 (free ligand pKa)

{"ITEM_SMILES": "Oc1ccc(O)c(CN(CCN(Cc2ccccn2)Cc2cc(O)ccc2O)Cc2ccccn2)c1", "pKa": 4.47}
